The origin of these recorded values is the Human Domainome abundance scans (Beltran et al. 2025).

B1: Formin-binding protein 4, residues 200 to 261; numbered along this chain, Q8N3X1 (parent)
chain: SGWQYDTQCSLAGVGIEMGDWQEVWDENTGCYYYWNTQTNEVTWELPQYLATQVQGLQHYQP

variants of: B1; assay: abundance fitness (aPCA) (normalised: wild type 0, dead -1); higher = more abundant; growth selection in yeast, the domain comes from the species named; conditions: Homo sapiens
Label scheme for abundance fitness: lower segment (below -0.3), middle segment (-0.3 to below -0.1), upper segment (-0.1 or more)

MUTATION NOTATION	CATEGORY LABEL
E27I	middle segment
V42N	middle segment
E17S	middle segment
Q48Y	upper segment
T29L	upper segment
N36Q	middle segment
N36S	lower segment
A12C	middle segment
L46N	lower segment
Q61S	upper segment
Q38M	middle segment
A51P	lower segment
G19S	lower segment
E27R	middle segment
W25I	middle segment
G19P	lower segment
Q53A	lower segment
G30W	middle segment
S1T	upper segment
I16H	lower segment
Q8S	upper segment
